Molecular target: T1, CT-Ler (Escherichia coli EHEC O157:H7, UniProt Q7DB51 70-116)
T1 chain: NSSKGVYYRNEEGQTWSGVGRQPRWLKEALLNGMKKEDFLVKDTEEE
Test: fluorescence anisotropy; Anisotropy: 40 mM HEPES pH 7.5, 60 mM K-glutamate, 0.01% NaN3, 20 C; EMSA: 15 mM Na-phosphate pH 7.5, 100 mM NaCl, 0.01% NaN3, room temperature; NMR structure:
Conditions: protein: recombinant; tags: N-terminal His6 (pHAT2); blunt
property.label: pKd
Recall that pKd is obtained by taking minus log10 of the concentration measured in molar.

Query: Fill in the blank: the reported pKd of LeeH T5C (dsDNA) DNA 1: GCGACAATTGATACC DNA 2: GGTATCAATTGTCGC is ____.
Result: 5.86

Query: Fill in the blank: the reported pKd of LeeH A7G (dsDNA) DNA 1: GCGATAGTTGATACC DNA 2: GGTATCAACTATCGC is ____.
Result: 5.57

Query: Fill in the blank: the reported pKd of LeeH T12C (dsDNA) DNA 1: GCGATAATTGACACC DNA 2: GGTGTCAATTATCGC is ____.
Result: 5.84
